test: clinical; settings: female, human, in vivo, po
RECORDED ENDPOINT: Cmax (ng/mL)

C[C@@H]1CCO[C@H]2Cn3cc(C(=O)NCc4ccc(F)cc4F)c(=O)c(O)c3C(=O)N12 4450

[I] Nc1nc(NC2CC2)c2ncn([C@H]3C=C[C@@H](CO)C3)c2n1
[II] Nc1ccn([C@@H]2CS[C@H](CO)O2)c(=O)n1
Qu. Response body: label of entry with the larger Cmax; valid values I , II . Mark your answer with the label of the selected entry.
Ans. I

###

assay: clinical; settings: male, human, in vivo, po
RECORDED ENDPOINT: Tmax (h)

MOLECULE	QUANTITY UNIT	Tmax
C[C@@H]1CCO[C@H]2Cn3cc(C(=O)NCc4ccc(F)cc4F)c(=O)c(O)c3C(=O)N12 [Dolutegravir, dolutegravir]	h	4

[A] Nc1nc(NC2CC2)c2ncn([C@H]3C=C[C@@H](CO)C3)c2n1 [Abacavir, abacavir]
[B] Nc1ccn([C@@H]2CS[C@H](CO)O2)c(=O)n1 [Lamivudine, lamivudine]
Qu. Of the two listed items, A and B , which carries the larger Tmax figure? Answer by stating the label of the chosen item.
Ans. B
